- Target entity: T1, AMHRII receptor expressed on cells (cov434-AMHRII, Asc 1, META 2815) (human, UniProt Q16671 18-573)
- T1 sequence (looked up): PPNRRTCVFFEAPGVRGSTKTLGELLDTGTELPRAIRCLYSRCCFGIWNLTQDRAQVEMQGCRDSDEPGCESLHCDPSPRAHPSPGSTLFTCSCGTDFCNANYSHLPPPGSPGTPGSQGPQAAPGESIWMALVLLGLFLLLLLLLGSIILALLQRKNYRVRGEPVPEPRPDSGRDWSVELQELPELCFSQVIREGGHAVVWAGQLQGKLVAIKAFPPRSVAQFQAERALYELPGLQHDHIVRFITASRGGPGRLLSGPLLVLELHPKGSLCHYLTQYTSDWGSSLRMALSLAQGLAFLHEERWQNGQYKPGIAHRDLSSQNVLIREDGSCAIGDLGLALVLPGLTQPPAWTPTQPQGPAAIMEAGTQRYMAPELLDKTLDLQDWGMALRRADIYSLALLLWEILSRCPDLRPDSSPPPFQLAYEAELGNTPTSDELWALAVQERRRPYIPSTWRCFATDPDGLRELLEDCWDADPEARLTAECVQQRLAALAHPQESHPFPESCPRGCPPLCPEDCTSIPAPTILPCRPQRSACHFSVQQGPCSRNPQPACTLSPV
- Protocol text: cell-based or functional assay
Quick list: % of lysis of ASC1 cells (ADCC with NK cells, LDH release) at 0.05 ng/ml antibody per entry.
Readout label: % of lysis of ASC1 cells (ADCC with NK cells, LDH release) at 0.05 ng/ml antibody

Binder: mutated humanized 12G4 antibody 3C-23K produced in YB2/0 (antibody, human IgG1, kappa, V domains shown, Chains without leader; also called 3C_23K YB2/0; 3C-23K-YB2/0) VH: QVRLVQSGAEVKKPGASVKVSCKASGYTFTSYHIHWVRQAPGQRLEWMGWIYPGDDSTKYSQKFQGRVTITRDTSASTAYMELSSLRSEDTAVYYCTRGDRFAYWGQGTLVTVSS VL: DIQMTQSPSTLSASVGDRVTITCRASSSVRYIAWYQQKPGKAPKLLTYPTSSLKSGVPSRFSGSGSGTEFTLTISSLQPDDFATYYCLQWSSYPWTFGGGTKVEIKR
Measurement: 10%

Binder: mutated humanized 12G4 antibody 6B-78 produced in YB2/0 (antibody, human IgG1, kappa, V domains shown, Chains without leader; Mutation VL-E184K; also called 6B_78 YB2/0; R901 6B78) VH: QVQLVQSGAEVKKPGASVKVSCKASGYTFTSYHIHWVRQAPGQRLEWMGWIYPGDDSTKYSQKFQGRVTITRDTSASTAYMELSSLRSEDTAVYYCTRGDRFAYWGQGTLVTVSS VL: DIQMTQSPSTLSASVGDRVTITCRASSSVRYIAWYQQKPGKAPKLLIYSTSSLKSGVPSRFSGSGSGTEFTLTISSLQPDDFATYYCLQWSSYPWTFGGGTKVEIKR
Measurement: 5%

Binder: mutated humanized 12G4 antibody 3C-23 produced in YB2/0 (antibody, human IgG1, kappa, V domains shown, Chains without leader; Mutations VH-Q3R, VL-I177T/S179P; also called 3C_23 YB2/0; R901 3C23) VH: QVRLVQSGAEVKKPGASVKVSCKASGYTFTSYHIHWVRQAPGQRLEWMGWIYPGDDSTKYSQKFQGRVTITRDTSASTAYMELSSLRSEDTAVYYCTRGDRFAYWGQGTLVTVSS VL: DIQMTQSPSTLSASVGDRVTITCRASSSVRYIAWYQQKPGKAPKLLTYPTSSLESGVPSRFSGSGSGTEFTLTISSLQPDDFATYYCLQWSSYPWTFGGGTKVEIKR
Measurement: 9%

Binder: unmutated humanized 12G4 monoclonal antibody (antibody, human IgG1, kappa, V domains shown, Variable regions without leader joined to the constant regions; also called huLFB112; 632 07 107 Anti AMHRII hum 1st) VH: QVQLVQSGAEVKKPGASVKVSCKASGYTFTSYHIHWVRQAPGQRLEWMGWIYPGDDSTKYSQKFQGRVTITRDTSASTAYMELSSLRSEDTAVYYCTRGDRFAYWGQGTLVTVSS VL: DIQMTQSPSTLSASVGDRVTITCRASSSVRYIAWYQQKPGKAPKLLIYSTSSLESGVPSRFSGSGSGTEFTLTISSLQPDDFATYYCLQWSSYPWTFGGGTKVEIKR
Measurement: 2%
